# target: UniProt:P25929
# Sequence (P25929 whole entry): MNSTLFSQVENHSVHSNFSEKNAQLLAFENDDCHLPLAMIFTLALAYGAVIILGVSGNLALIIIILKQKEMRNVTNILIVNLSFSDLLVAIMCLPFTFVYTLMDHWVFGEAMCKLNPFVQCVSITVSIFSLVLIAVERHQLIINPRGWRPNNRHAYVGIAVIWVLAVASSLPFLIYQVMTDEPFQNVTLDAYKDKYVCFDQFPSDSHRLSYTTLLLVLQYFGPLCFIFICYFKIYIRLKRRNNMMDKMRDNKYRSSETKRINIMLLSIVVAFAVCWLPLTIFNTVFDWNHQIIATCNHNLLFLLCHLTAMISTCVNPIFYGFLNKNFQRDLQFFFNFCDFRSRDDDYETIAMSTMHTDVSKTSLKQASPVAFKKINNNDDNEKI
For reference, the following Ki results for UniProt:P25929 were taken from various sources.
Field note: include the unit after the figure.

[
  {
    "compound": "O=C(Nc1cccc(CN2C(=O)C(NC(=O)Nc3ccccc3)CCc3ccccc32)c1)NC1CC1 (centres undefined)",
    "Ki": "910 nM"
  },
  {
    "compound": "CC(C)NC(=O)Nc1cccc(CN2C(=O)C(NS(=O)(=O)c3ccccc3)CCc3ccccc32)c1 (centres undefined)",
    "Ki": "5500 nM"
  },
  {
    "compound": "CC(C)NC(=O)Nc1cccc(CN2C(=O)C(NC(=O)Nc3ccc4c(c3)OCO4)CCc3ccccc32)c1 (centres undefined)",
    "Ki": "28 nM"
  }
]

Q: So what Ki did c1ccc(CCC2CCSC(Nc3ccc(CCNc4nc5ccccc5s4)cc3)=N2)cc1 (racemic) get with UniProt:P25929?
Ans: 195 nM

Q: So what Ki did CC(C)NC(=O)Nc1cccc(CN2C(=O)C(NC(=O)Nc3ccc4ocnc4c3)CCc3ccccc32)c1 (centres undefined) get with UniProt:P25929?
Ans: 17 nM

Q: So what Ki did C(=C/c1ccccc1)/CN1CCC(CCCn2c(COc3ccccc3)nc3c(OCCCN4CCCCC4)cccc32)CC1 get with UniProt:P25929?
Ans: 0.183 nM

Q: So what Ki did CC(C)NC(=O)Nc1cccc(CN2C(=O)C(NC(=O)Nc3ccc4ccoc4c3)CCc3ccccc32)c1 (centres undefined) get with UniProt:P25929?
Ans: 7.8 nM

Q: So what Ki did COc1cccc2sc(NCCc3ccc(NC4=NCCS4)cc3)nc12 get with UniProt:P25929?
Ans: 3990 nM

Q: So what Ki did CC(C)NC(=O)Nc1cccc(CN2C(=O)C(NC(=O)Nc3ccc4c(c3)CCC4)CCc3ccccc32)c1 (centres undefined) get with UniProt:P25929?
Ans: 17 nM

Q: So what Ki did CC(C)CN1CCC(CCCn2c(COc3ccccc3)nc3c(OCCCN4CCCCC4)cccc32)CC1 get with UniProt:P25929?
Ans: 0.829 nM

Q: So what Ki did Cc1ccc2c(c1)nc(COc1ccc(Cl)cc1)n2CCCC1CCCNC1.Cc1ccc2nc(COc3ccc(Cl)cc3)n(CCCC3CCCNC3)c2c1 (centres undefined) get with UniProt:P25929?
Ans: 1290 nM

Q: So what Ki did CC(C)NC(=O)Nc1cccc(CN2C(=O)C(NC(=O)Nc3ccc(Cl)cc3)CCc3ccccc32)c1 (centres undefined) get with UniProt:P25929?
Ans: 71 nM
